Where these numbers come from: PubChem BioAssay (EPA / NIEHS)

read-out: E-selectin (Homo sapiens) (UniProt P16581); test: BSK_LPS_Eselectin: BioMAP Diversity Plus: LPS Assay for Eselectin Biomarker Activity (AID 2283077); conditions: primary human HUVEC with PBMC; actives raise or lower the signal
Sequence (P16581 whole entry, looked up): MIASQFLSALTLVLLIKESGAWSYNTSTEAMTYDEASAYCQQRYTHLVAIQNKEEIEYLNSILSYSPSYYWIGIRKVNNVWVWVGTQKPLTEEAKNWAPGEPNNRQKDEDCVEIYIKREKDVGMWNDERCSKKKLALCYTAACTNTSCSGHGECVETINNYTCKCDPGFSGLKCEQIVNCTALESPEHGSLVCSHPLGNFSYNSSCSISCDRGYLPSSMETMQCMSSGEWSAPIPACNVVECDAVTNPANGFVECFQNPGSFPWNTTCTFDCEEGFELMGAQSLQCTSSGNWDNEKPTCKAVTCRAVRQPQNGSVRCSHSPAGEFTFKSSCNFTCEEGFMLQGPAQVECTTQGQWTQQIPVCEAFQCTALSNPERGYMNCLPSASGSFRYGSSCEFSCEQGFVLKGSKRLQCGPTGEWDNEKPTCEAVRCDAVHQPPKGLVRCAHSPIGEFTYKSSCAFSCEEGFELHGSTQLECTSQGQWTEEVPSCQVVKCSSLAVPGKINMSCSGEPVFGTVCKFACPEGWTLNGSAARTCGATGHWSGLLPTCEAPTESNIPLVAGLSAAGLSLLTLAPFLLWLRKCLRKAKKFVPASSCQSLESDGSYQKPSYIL
The source made the active and inactive calls. The calls were made as follows: active = hit-call score of the fitted dose curve at least 0.9, where 1 is the maximum; inactive = score below 0.9.
Form entry, call: pick from label 1 for active, label 0 for inactive

See these solved cases before continuing.
compound	answer.label
O=C(O)c1cc(N=Nc2ccc(S(=O)(=O)Nc3ccccn3)cc2)ccc1O	label 0
CCCN(C1CCN(C(=O)C2CCNCC2)CC1)[C@@H]1CCc2ccc(OC)cc2C1	label 0
C1=CCCC=CCCC=CCC1	label 0
CC(=O)OC[C@H]1O[C@@](COC(C)=O)(O[C@H]2O[C@H](COC(C)=O)[C@@H](OC(C)=O)[C@H](OC(C)=O)[C@H]2OC(C)=O)[C@@H](OC(C)=O)[C@@H]1OC(C)=O	label 0

Just curious, what result did `COC(=O)CC(=O)OC` get here?
label 0

Tell me the assay call for `CCNc1ccccc1` please.
label 0
